# Target Of Assay: D3R (Homo sapiens (Human))
# Sequence (P35462 whole entry): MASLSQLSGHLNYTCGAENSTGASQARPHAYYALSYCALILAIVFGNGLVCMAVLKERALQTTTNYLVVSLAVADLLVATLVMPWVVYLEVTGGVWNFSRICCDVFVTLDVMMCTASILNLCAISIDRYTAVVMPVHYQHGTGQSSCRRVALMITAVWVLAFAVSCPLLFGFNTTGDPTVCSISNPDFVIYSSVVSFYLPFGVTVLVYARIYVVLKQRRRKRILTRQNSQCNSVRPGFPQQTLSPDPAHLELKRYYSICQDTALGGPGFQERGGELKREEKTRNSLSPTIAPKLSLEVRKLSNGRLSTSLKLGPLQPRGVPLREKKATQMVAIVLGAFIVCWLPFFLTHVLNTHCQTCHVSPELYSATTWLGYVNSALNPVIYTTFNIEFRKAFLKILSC
# Protocol Text: D3 Mitogenesis Functional Assay (3H-thymidine uptake, CHOp-D3 cells)
# Assay type: cell-based
# Assay Context: at 10 μM; % maximum stimulation vs quinpirole (100%); read-out: D3 Agonist Emax
Examples of molecules with documented Emax at 10 µM follow.

Below, 5 molecules whose answers are already recorded.
[
  {
    "Smiles Code": "CC(C)(C)c1nc(N2CCN(CCCCNC(=O)c3cn4ccncc4n3)CC2)cc(C(F)(F)F)n1",
    "Emax at 10 µM": "< 20%"
  },
  {
    "Smiles Code": "O=C(NCCCCN1CCN(c2cccc(Cl)c2Cl)CC1)N1CCC(c2ccccc2)CC1",
    "Emax at 10 µM": "< 20%"
  },
  {
    "Smiles Code": "O=C(NCCCCN1CCN(c2cccc(Cl)c2Cl)CC1)N1CCN(c2ccccc2)CC1",
    "Emax at 10 µM": "< 20%"
  },
  {
    "Smiles Code": "CC(C)(C)c1nc(N2CCN(CCCCNC(=O)N3CCC(c4ccccc4)CC3)CC2)cc(C(F)(F)F)n1",
    "Emax at 10 µM": "< 5%"
  },
  {
    "Smiles Code": "CC(C)(C)c1nc(N2CCN(CCCCNC(=O)N3CCN(c4ccccn4)CC3)CC2)cc(C(F)(F)F)n1",
    "Emax at 10 µM": "< 5%"
  }
]

*Q* Can you share its Emax at 10 µM? I mean this molecule: `CC(C)(C)c1nc(N2CCN(CCCCNC(=O)c3cn4nc(Cl)ccc4n3)CC2)cc(C(F)(F)F)n1`
*A* < 1%

*Q* # lookup: Emax at 10 µM of `CC(C)(C)c1nc(N2CCN(CCCCNC(=O)c3cn4cccnc4n3)CC2)cc(C(F)(F)F)n1`
*A* 14%

*Q* Any idea what its Emax at 10 µM is? The molecule is `CC(C)(C)c1nc(N2CCN(CCCCNC(=O)N3CCN(c4ncccn4)CC3)CC2)cc(C(F)(F)F)n1`
*A* < 8%
